Test system: SKOV3
measurement-notes: Primary qHTS to identify gynecologic anti-cancer compounds using libraries of approved drugs and bioactive compounds (AID 1345084); further: nearly all actives have a fitted effect of over 55% in size
experimental-conditions: Gynecologic cancer cell panel viability, ATPlite luminescence, 48 h; series mostly up to 57.5 µM
From the text: National Center for Advancing Translational Sciences [NCATS] Assay Overview: Chemotherapeutic drug responses vary from cancer to cancer and from patient to patient. […] ATPlite is a luminescence based assay reliant on the conversion of a luciferase substrate to light in the presence of ATP. As a cytotoxic compound will suppress growth and decrease the number of cells, the concentration of ATP will decrease, and less light signal will be detected in the well. […]
Records with an inconclusive call do not appear. Activity calls are given as the source filed them. The call rests on the fitted dose curve; in most records, active means well fitted cell-killing curve with a large enough effect; inconclusive means small, poorly fitted or top-dose-only effect, or effect the other way; inactive means flat fitted curve, though single readings scatter.
In this exercise, the only acceptable responses are active, inactive

# molecule, class-assignment
measured = [
    ("C[C@@H]1CCC2C(C)(C)[C@H](O)CC[C@]2(C)[C@@]12Cc1c(O)cc3c(c1O2)CN([C@@H](CCC(=O)O)C(=O)O)C3=O (stereo partly specified)", "inactive"),
    ("NCCCNc1ccc(Nc2nccc(Nc3cc(C4CC4)[nH]n3)n2)cc1", "active"),
]

Problem: Status in this test for c1ccc(-c2csc(N3CCOCC3)n2)cc1 ?
Solution: inactive

Problem: For this molecule, state the assay outcome: COc1ccc2c(OC)c3ccoc3nc2c1OC
Solution: inactive

Problem: Could you check what this test reported for C[C@@H]1CC[C@]2(C(=O)O)CC[C@]3(C)C(=CCC4[C@@]5(C)CC[C@H](O)C(C)(C)C5C(O)C[C@]43C)[C@@H]2[C@]1(C)O (stereo partly specified) ?
Solution: inactive
